Cited source for all entries: the DeepSol protein solubility set

- procedure_summary: soluble on expression in E. coli; label from the status in PepcDB or PDB records
readout_name: soluble on expression in E. coli

- SLQSYQSVDSIRAAALATVGPDAEAEATLDPGLRMPGCPIALQAKPTGTNTVEVACPQPAGWRLFVPLKVRRNQDVLVLRRGISAGETISLADISIEKRDAARIVGAVLADPVAAVGKTARRILPAGSLLSANDLVSQRLVRRGDTVPLVSRNGGLEVRMSGRALSDAGENERVSVENSSSRRVVQGIVEASGTVVVSR: soluble
- MAHHHHHHMDGAYGMRTVLNSSRLEEEPKYTLNPADLPHSSMNANNMMNGAVLTNGYHTSDYVINRESYPPDMMPQFKIDQGGSAYNNTMPMNSIIHTDPNESINMQGMKTCLETTTGFDSYRNLMNYNNTQNTIQASQVPFHLDDYNSGADLMYMSHPHTGDNFSPDYLNNLRSTETDPMTYGNNFNIPNGQFNSMLGENNNYNSLPYSMPIFENMNNPQMYMQQMNSKQALSGPTQKMDHTCSIRKMPAVSKRKIKPKKFFPCC: soluble
- MHHHHHHSSGVDLGTENLYFQSMGQCSVLLFPGQGSQVVGMGRGLLNYPRVRELYAAARRVLGYDLLELSLHGPQETLDRTVHCQPAIFVASLAAVEKLHHLQPSVIENCVAAAGFSVGEFAALVFAGAMEFAEGLYAVKIRAEAMQEASEAVPSGMLSVLGQPQSKFNFACLEAREHCKSLGIENPVCEVSNYLFPDCRVISGHQEALRFLQKNSSKFHFRRTRMLPVSGAFHTRLMEPAVEPLTQALKAVDIKKPLVSVYSNVHGHRYRHPGHIHKLLAQQLVSPVKWEQTMHAIYERKKGRGFPQTFEVGPGRQLGAILKSCNMQAWKSYSAVDVL: soluble

---

- procedure_summary: soluble on expression in E. coli; label from the status in PepcDB or PDB records
readout_name: soluble on expression in E. coli

* MVKTAVLMATYNGEIFISEQLDSIRQQTLKPDYVLLRDDCSTDETVNVVNNYIAKHELEGWKIVKNDKNLGWRLNFRQLLIDVLAYEVDYVFFSDQDDIWYLDKNERQFAIMSDKPQIEVLSADVDIKTMSTEASVPHFLTFSSSDRISQYPKVYDYQTFRPGWTIAMKRDFAQAIADNWTFGANISHDNLIETTASIIGNGYNLNESVGVHIRYGGNASGNSKFVLNWKSPKTQHITGLKTFVDFYETMQKVVNKYQNDVALNQRLAFEKERLEASKLSLIHNSAFVIKNWRLYNSNSGRMRDLLFAFKKLEHHHHHH | soluble
* MSIFNGIKEEQMDILREVGNIGAGHSASAMAQLLNRKIDMEVPFAKLLSFDELVDFFGGADVPVASIFLRMEGDLTGSMFFIMPFFQAEQFIRELIGNPDFDIEDLGEDHMSSSALHELGNILAGSYLTALADLTKLQLYPSVPEVSLDMFGAVISEGLMELSQVGEHAIVVDTSIFDQSHQQELKAHMFMLPDYDSFEKLFVALGASL | soluble

---

- procedure_summary: soluble on expression in E. coli; label from the status in PepcDB or PDB records
readout_name: soluble on expression in E. coli

Observe how each entry below is paired with its result.
• MLIWSPSVRIAANIRTDNPNSLKRNANMPQLTLDKTDIKILQVLQENGRLTNVELSERVALSPSPCLRRLKQLEDAGIVRQYAALLSPESVNLGLQAFIRVSIRKAKDAREDFAASVRKWPEVLSCFALTGETDYLLQAFFTDMNAFSHFVLDTLLSHHGVQDAQSSFVLKEIKHTTSLPLNHLLKE = not soluble
• MGSDKIHHHHHHMFLKNCWYVAAWSHEIDRTLQPQTFLGENVVLYRKQDGTPVALEDACPHRKLPLSDGALQGDTVECGYHGLTFDCAGACVAAPTQKDAIPKRATVKSYPVVDRYRFTWIWMGDPAEADPDLIFPIPNFDDPTWGKTDGGVLDIDCNYLWVVDNLLDPSHVAWVHVTSFAGGGTDGAPLQVDKTEHGVQVTRWIFGEPPSPYYENLLAFQGPCDRLQHYEMTRPAMATNMSIYTPPGTGGYGRSPVENTFINISYNFMTPITEDKTRYFWFQHRNSEPDNVEMSETMNKGAVMAFHEDKAILEKVHTGMKHAVTPHIDLGLDAGAKTFRLGLQKAIETENA = not soluble
• KDYDAYLSYTKVDPDQWNQETGEEERFALEILPDMLEKHYGYKLFIPDRDLIPTGTYIEDVARCVDQSKRLIIVMTPNYVVRRGWSIFELETRLRNMLVTGEIKVILIECSELRGIMNYQEVEALKHTIKLLTVIKWHGPKCNKLNSKFWKRLQYEMPF = soluble
• MVGLADVAVLYSGGKDSNYALYWAIKNRFSVKFLVTMVSENEESYMYHTINANLTDLQARALGIPLVKGFTQGEKEKEVEDLKRVLSGLKIQGIVAGALASKYQRKRIEKVAKELGLEVYTPAWGRDAKEYMRELLNLGFKIMVVGVSAYGLDESWLGRILDESALEELITLNEKYKVHVAGEGGEFETFVLDMPLFKYKIVVDKAKKVWEPCTSSGKLIIEEAHLESKLEHHHHHH = soluble
• MAENDGETIVPDEQCNLTASTPMKSSGLEQVESPKERKTSMVECDDEGNPSSGTPDESPKQLTPHSIPPRRRRSPRRPEVSASRLPLKVLNQIFQYLPLKDLRSAMLTCHSWNNALSMEDSDIWQYLLGKKLPEAAVSDPFLLAELGSAKKKLRAWYFAWNTSDISRNNYIRTNGFTVHRQPVAQSTDGVRGKRGISKGVHAFDITWDGPLGTVAVVGIATKHAALHCVGYVALLGSDDQSWGWNLVDNVLMHNGAQLGVYPKMNNPPKYEVGDKIRLIIDCDTHVAYFERNSEFLGIAFNHIPPLRLYPAVCAVYGNTEVTMVYVGSPQMG = not soluble

We next turn to a different sequence, shown below.
So, `MAHHHHHHMTITLDSFNEQKVHNNQNKRKYNCRLNFKRFTKRRNNYNEDNRDSKINIKTALIKNEVISDDNDEFIDSNLMRTCHRFRLYKHSSNKIDIYYPYDKKKLDKYDYERDQTFCSLTDIEDVVNNGDDKSSKFFYYKNKSLNDYKSCFEKKNKKTKWFRLRKKKKKDHAMDESLKYLNESVCSNYKEANKNNKLDNSSKYSKNCVINTTVNGIRGFSAWIF` ? Its soluble on expression in E. coli was not soluble

---

- procedure_summary: soluble on expression in E. coli; label from the status in PepcDB or PDB records
readout_name: soluble on expression in E. coli

* MVKVYGSTVDNESRCTHYQTPLDIIAIKFKCCNKYYPCYKCHNEHESHKIQRWQANEFHEKAILCGVCNHEMTINDYMMIEACPKCDAHFNNRCKYHYHLYFEILEHHHHHH | soluble
* MAHHHHHHMGFFKKNKRQSFNRNYEGEVQCNNIILGGTFYKHCENDLLLKNELENLVPYFNGRIFLENKEEIGKVDEILGPINEFYFSVKLKEGIRAKSFSSDTHFFIDKSQTLPLSRFLPQEKNSQSLVKKKKKKSNRDKKKNSFNQNNKKPNNYNFKGNNNRNDHNNRNDHNNRNDHNNRNDHNNRNDRNNRNNKNSFRNRSNSSRKFNNQRGRF | not soluble
* MSDAMPLDQTLEQLTQDEWIDIPQGWSQGRTIYGGLVAGLLMHKALSVMNDESKNLLSTSITFVGPVNEGRVRLTVEILRQGKSVTTIEARLWQDQAVQTILIASFGQPRSSEIFVLEHHHHHH | soluble
* MPIATPEVYAEMLGQAKQNSYAFPAINCTSSETVNAAIKGFADAGSDGIIQFSTGGAEFGSGLGVKDMVTGAVALAEFTHVIAAKYPVNVALHTDHCPKDKLDSYVRPLLAISAQRVSKGGNPLFQSHMWDGSAVPIDENLAIAQELLKAAAAAKIILEIEIGVVGGEEDGVANEINEKLYTSPEDFEKTIEALGAGEHGKYLLAATFGNVHGVYKPGNVKLRPDILAQGQQVAAAKLGLPADAKPFDFVFHGGSGSLKSEIEEALRYGVVKMNVDTDTQYAFTRPIAGHMFTNYDGVLKVDGEVGVKKVYDPRSYLKKAEASMSQRVVQACNDLHCAGKSLTHHHHHH | soluble
* MGSDKIHHHHHHMRPAPSIVEVVAAIIIGSDGSFLLARRPEGKPYAGYWEFPGGKVNPEESLLRALKRELLEELGIHVKHAYPWITRTFTYPHARVRLHFYRVVEWHGEPHPHEDQELSWQFADNVSVEPLLPANAPVLRALALPPVYGITNAAEWGPQIAAARIGHALQKGLRLVQLREKGMRSKALDAFAREVTALAHHYGARILVNSGTGNESLCQELDMDGIHFTSADLMNLSKRPDVEWCAASCHNAEELFRAEQLEMDFAVLAPVLPTLSHPDSPVLGWRKLARIIHGSAIPVYALGGLQSEDLAIAWEHGAHGIALMRRIEQVRGTGQKA | not soluble

soluble on expression in E. coli in this record for `MAHHHHHHMFSRTGFRCAPVVEDVVAAFKVLGLAYNPRAPASSRPGVDDVRRQYLEMARLHHPDLSSGDDNRMKVINTAYELIQSSGILHGAYDAPAGAREGVAGQQGGEAGTATRFARKAGARRRRMPDDFASGDDSSWSMKTSLDWQAIMNSTETLSDEEMKNPANHPFSHSKFFTFEDDLTIYRMICGGATVRQVARSLGKPATFIERRLQNAQFKLRVQYVLRQDKRKSTAASSNGAASSGSMQQTTSTTITEPATRRALRRSPYEDAHVSSTVRKREWEPSYPEWRAPRYRDQMTLEEQGRLDGLLRETPRAAHAAGKSVSSLHSARRSAASKMGRSYENYKRLRPSF` : not soluble
